List of AC50 values.
Target: Gastrin/cholecystokinin type B receptor (Homo sapiens, UniProt P32239); also: assay procedure not described here
Sequence (P32239 whole entry): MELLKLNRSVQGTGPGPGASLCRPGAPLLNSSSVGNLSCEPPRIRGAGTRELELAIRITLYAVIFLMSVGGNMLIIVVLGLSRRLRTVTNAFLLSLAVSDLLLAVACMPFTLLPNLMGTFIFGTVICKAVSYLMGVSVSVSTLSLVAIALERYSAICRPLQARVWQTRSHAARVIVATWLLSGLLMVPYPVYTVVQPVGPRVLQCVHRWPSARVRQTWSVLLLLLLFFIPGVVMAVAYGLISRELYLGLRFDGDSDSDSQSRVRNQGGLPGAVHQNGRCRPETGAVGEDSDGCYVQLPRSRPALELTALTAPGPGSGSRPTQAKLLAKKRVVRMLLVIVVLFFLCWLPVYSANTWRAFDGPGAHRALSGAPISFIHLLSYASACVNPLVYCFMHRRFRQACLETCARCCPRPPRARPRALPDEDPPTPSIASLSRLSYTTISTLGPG

Compound | Meas value
Cc1nc([N+](=O)[O-])cn1-c1ccc([N+](=O)[O-])cc1 | > 30 µM
C[C@]12CCC(=O)C=C1CC[C@@H]1[C@@H]2[C@@H](O)C[C@@]2(C)[C@H]1CC[C@]2(O)C(=O)CO [HYDROCORTISONE] | > 30 µM
Fc1ccc(C(c2ccccc2)(c2ccccc2F)n2ccnc2)cc1 (centres undefined) | 25 µM

Task: Give Gastrin/cholecystokinin type B receptor (Homo sapiens, UniProt P32239) AC50 for the following compound: CCC(C)n1ncn(-c2ccc(N3CCN(c4ccc(OCC5COC(Cn6cncn6)(c6ccc(Cl)cc6Cl)O5)cc4)CC3)cc2)c1=O (centres undefined)
Output: > 30 µM
